Tested on: OV90
Experiment: Primary qHTS to identify gynecologic anti-cancer compounds using libraries of approved drugs and bioactive compounds (AID 1345084); further: nearly all actives have a fitted effect of over 55% in size
Details: Gynecologic cancer cell panel viability, ATPlite luminescence, 48 h; series mostly up to 57.5 µM
Inconclusive results are not listed. Calls of active or inactive are those of the source. The call rests on the fitted dose curve; in most records, active means well fitted cell-killing curve with a large enough effect; inconclusive means small, poorly fitted or top-dose-only effect, or effect the other way; inactive means flat fitted curve, though single readings scatter.
Permitted responses: active, inactive

Record lookup: outcome of this test for `CCCn1c(=O)c2[nH]c(-c3cnn(Cc4cccc(C(F)(F)F)c4)c3)nc2n(CC)c1=O` ?
inactive

Record lookup: outcome of this test for `CC(=O)SC[C@@H](C)C(=O)N1CCC[C@H]1C(=O)N[C@@H](Cc1ccccc1)C(=O)O` ?
inactive

Record lookup: outcome of this test for O=C(O)C1(Cc2cccc(Nc3nccs3)n2)CCC(Oc2cccc(Cl)c2F)CC1 (configuration not stated) ?
inactive

Record lookup: outcome of this test for `C[C@@H](Oc1cc(-c2cnn(C3CCNCC3)c2)cnc1N)c1c(Cl)ccc(F)c1Cl` ?
active

Others:
Record lookup: outcome of this test for `COc1cc2c(NC3CCN(C(C)C)CC3)nc(C3CCCCC3)nc2cc1OCCCN1CCCC1` ?
active

Record lookup: outcome of this test for `COc1cc(C(=O)N2CCC(N3CCN(C)CC3)CC2)ccc1Nc1ncc2c(n1)N(C)c1ccccc1C(=O)N2C` ?
inactive

Record lookup: outcome of this test for CCOc1ccccc1OCCNC(C)Cc1ccc(OC)c(S(N)(=O)=O)c1 (configuration not stated) ?
inactive
